Cited source: ChEMBL document CHEMBL1141979

Test: Partition coefficient (logP)
Assay type: physicochemical
Settings: octanol/water
Definition: the class of an entry is the range in class 1 (below 1), class 2 (1 to below 2), class 3 (2 or more) that contains its logP.

Here are 6 compounds together with their reported answers.
The entry to classify is CCCOC(=O)c1ccccc1S(N)(=O)=O ; which class holds it?
class 2

The entry to classify is CCCCCOC(=O)c1cccc(S(N)(=O)=O)c1 ; which class holds it?
class 3

The entry to classify is CCCOC(=O)c1cccc(S(N)(=O)=O)c1 ; which class holds it?
class 2

The entry to classify is CCCCCCCNC(=O)c1ccc(S(N)(=O)=O)cc1 ; which class holds it?
class 3

The entry to classify is CCCCCc1ccc(S(N)(=O)=O)cc1 ; which class holds it?
class 3

The entry to classify is Cc1ccc(S(N)(=O)=O)cc1 [P-TOLUENESULFONAMIDE] ; which class holds it?
class 1

More entries:
The entry to classify is CCCCCCOC(=O)c1ccc(S(N)(=O)=O)cc1 ; which class holds it?
class 3

The entry to classify is CCOC(=O)c1ccccc1S(N)(=O)=O ; which class holds it?
class 1

The entry to classify is CCCCOC(=O)c1cccc(S(N)(=O)=O)c1 ; which class holds it?
class 3

The entry to classify is COC(=O)c1ccccc1S(N)(=O)=O ; which class holds it?
class 1

The entry to classify is CCOC(=O)c1cccc(S(N)(=O)=O)c1 ; which class holds it?
class 2

The entry to classify is COC(=O)c1cccc(S(N)(=O)=O)c1 ; which class holds it?
class 1
